tested system: GPR84 (Homo sapiens (Human))
protocol notes: Gai biosensor BRET assay (GPR84-mediated activation of Gai, antagonist mode against agonist ZQ-16)
Type: cell-based
measurement context: compound tested at 10 μM (concentration code D)
Recorded inhibition at 10 µM values for a group of molecules are listed next.

Prompt: Name the reported inhibition at 10 µM value associated with the molecule Cc1cc(OCC2COCCO2)cc(=O)n1Cc1cccc(OCC(F)(F)F)c1 (centres unmarked)
Response: < 25%

Prompt: Name the reported inhibition at 10 µM value associated with the molecule Cc1cc(OC[C@H]2COCCO2)cc(=O)n1Cc1ccc(N2CC(C)(C)C2)cc1
Response: < 25%

----------
tested system: GPR84 (Homo sapiens (Human), UniProt Q9NQS5)
Sequence (Q9NQS5 whole entry): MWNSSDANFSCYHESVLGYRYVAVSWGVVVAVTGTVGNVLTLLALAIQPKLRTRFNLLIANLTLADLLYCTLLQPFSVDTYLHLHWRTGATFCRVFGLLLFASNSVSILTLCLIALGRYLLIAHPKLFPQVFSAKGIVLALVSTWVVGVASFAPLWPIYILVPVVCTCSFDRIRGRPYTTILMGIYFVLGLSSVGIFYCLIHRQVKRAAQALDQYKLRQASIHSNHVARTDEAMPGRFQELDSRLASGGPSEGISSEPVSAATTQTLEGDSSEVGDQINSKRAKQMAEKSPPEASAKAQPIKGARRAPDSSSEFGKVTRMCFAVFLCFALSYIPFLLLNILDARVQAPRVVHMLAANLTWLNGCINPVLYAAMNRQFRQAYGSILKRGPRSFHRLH
protocol notes: Gai biosensor BRET assay (GPR84-mediated activation of Gai, antagonist mode against agonist ZQ-16)
Type: cell-based
measurement context: compound tested at 10 μM (concentration code D)
Description: Background—The following assays can be used for determination of GPR84 activation in living HEK293 cells. […] The Gai biosensor consists of a Rluc8-tagged Gαi2 subunit, a GFP10-tagged Gγ2 subunit, and an untagged Gβ1. […] Moreover, signaling functions of GPCRs are tightly regulated by endocytosis, the targeting of receptors to endosomes and their sorting to lysosomes or recycling to the plasma membrane. […]
Recorded inhibition at 10 µM values for a group of compounds are listed next.

compound: Cc1cc(OCc2ncccc2F)cc(=O)n1C(C)c1ccc(C#CC2CC2)nc1 (stereo not drawn)
tested system: GPR84 (Homo sapiens (Human), UniProt Q9NQS5)
assay result: 50 to 75%
--
compound: Cc1cc(OCc2ncccn2)cc(=O)n1[C@@H](C)c1ccc(C#CC2CC2)cc1
tested system: GPR84 (Homo sapiens (Human), UniProt Q9NQS5)
assay result: < 25%

Prompt: Please state recorded inhibition at 10 µM (tested on GPR84 (Homo sapiens (Human), UniProt Q9NQS5)) of Cc1cc(OCC2COc3ccccc3O2)cc(=O)n1C(C)c1ccc(C#CC2CC2)cc1 (stereo not drawn)
Response: < 25%

----------
tested system: GPR84 (Homo sapiens (Human))
protocol notes: Gai biosensor BRET assay (GPR84-mediated activation of Gai, antagonist mode against agonist ZQ-16)
Assay type: cell-based
measurement context: compound tested at 10 μM (concentration code D)
Recorded inhibition at 10 µM values for a group of molecules are listed next.

A selection of reference data follows.
molecule: Cc1cc(OCc2cccnc2Cl)cc(=O)n1[C@H](C)c1ccc(C#CC2CC2)cc1 [Compound I-305]
inhibition at 10 µM: > 75%
//
molecule: Cc1cc(OCc2ncccn2)cc(=O)n1C(C)c1ccc(C#CC2CC2)cn1 (stereo not shown) [Compound I-253]
inhibition at 10 µM: 50 to 75%
//
molecule: Cc1cc(OCc2ncccn2)cc(=O)n1-c1cccc(C#CC2CC2)c1 [Compound I-245]
inhibition at 10 µM: < 25%

Could you now consider this next molecule?
Prompt: Name the reported inhibition at 10 µM value associated with the molecule Cc1cc(OCc2cnnn2C)cc(=O)n1[C@H](C)c1ccc(C#CC2CC2)cc1 [Compound I-359]
Response: > 75%

----------
tested system: GPR84 (Homo sapiens (Human), UniProt Q9NQS5)
protocol notes: Gai biosensor BRET assay (GPR84-mediated activation of Gai, antagonist mode against agonist ZQ-16)
Type: cell-based
measurement context: compound tested at 10 μM (concentration code D)
quantity: inhibition at 10 µM

A selection of reference data follows.
compound: Cc1cc(OCc2ncccn2)cc(=O)n1Cc1cc(C#CC2CC2)ccn1
tested system: GPR84 (Homo sapiens (Human), UniProt Q9NQS5)
inhibition at 10 µM: < 25%

compound: Cc1cc(OCC2COCCO2)cc(=O)n1C(C)c1cccc(C#CC2CC2)c1 (stereo not drawn)
tested system: GPR84 (Homo sapiens (Human), UniProt Q9NQS5)
inhibition at 10 µM: < 25%

compound: CC(c1cc(C#CC2CC2)ccn1)n1ccc(OCc2ncccn2)cc1=O (stereo not drawn)
tested system: GPR84 (Homo sapiens (Human), UniProt Q9NQS5)
inhibition at 10 µM: 25 to 50%

Prompt: Please state recorded inhibition at 10 µM (tested on GPR84 (Homo sapiens (Human), UniProt Q9NQS5)) of Cc1cc(OCC2COCCO2)cc(=O)n1-c1ccc(C#CC2CC2)cc1 (stereo not drawn)
Response: 25 to 50%

Prompt: Please state recorded inhibition at 10 µM (tested on GPR84 (Homo sapiens (Human), UniProt Q9NQS5)) of Cc1cc(OCc2cnn(C)c2)cc(=O)n1[C@H](C)c1ccc(C#CC2CC2)cc1
Response: > 75%

Prompt: Please state recorded inhibition at 10 µM (tested on GPR84 (Homo sapiens (Human), UniProt Q9NQS5)) of Cc1cc(OCC2COCCO2)cc(=O)n1[C@H](CO)c1ccc(C#CC2CC2)cc1 (stereo in doubt)
Response: 25 to 50%

----------
tested system: GPR84 (Homo sapiens (Human))
protocol notes: Gai biosensor BRET assay (GPR84-mediated activation of Gai, antagonist mode against agonist ZQ-16)
Format: cell-based
measurement context: compound tested at 10 μM (concentration code D)
quantity: inhibition at 10 µM

compound: Cc1cc(OCc2ncccn2)cc(=O)n1[C@H](C)Cc1ccc(C#CC2CC2)cc1 (stereo in doubt)
inhibition at 10 µM: > 75%
//
compound: CCCCCc1ccc([C@@H](C)n2c(C)cc(OCc3ncccn3)cc2=O)cc1
inhibition at 10 µM: < 25%
//
compound: Cc1cc(N(C)Cc2ncccn2)cc(=O)n1[C@H](C)c1ccc(C#CC2CC2)cc1
inhibition at 10 µM: > 75%

Prompt: Please state recorded inhibition at 10 µM (tested on GPR84 (Homo sapiens (Human))) of Cc1ccc(C#CC2CC2)cc1Cn1c(C)cc(OCC2COCCO2)cc1=O (centres unmarked)
Response: < 25%

Prompt: Please state recorded inhibition at 10 µM (tested on GPR84 (Homo sapiens (Human))) of Cc1cc(OC[C@@H]2COCCO2)cc(=O)n1[C@@H](C)c1ccc(C#CC2CC2)cc1 (stereo in doubt)
Response: < 25%

----------
tested system: GPR84 (Homo sapiens (Human), UniProt Q9NQS5)
protocol notes: Gai biosensor BRET assay (GPR84-mediated activation of Gai, antagonist mode against agonist ZQ-16)
Format: cell-based
measurement context: compound tested at 10 μM (concentration code D)
Description: Background—The following assays can be used for determination of GPR84 activation in living HEK293 cells. […] The Gai biosensor consists of a Rluc8-tagged Gαi2 subunit, a GFP10-tagged Gγ2 subunit, and an untagged Gβ1. […] Moreover, signaling functions of GPCRs are tightly regulated by endocytosis, the targeting of receptors to endosomes and their sorting to lysosomes or recycling to the plasma membrane. […]
Recorded inhibition at 10 µM values for a group of compounds are listed next.

A selection of reference data follows.
compound: Cc1cc(OCc2ncccn2)cc(=O)n1C(C)c1ccc(Oc2ccccc2)cc1 (stereo not drawn) [Compound I-307]
inhibition at 10 µM: < 25%
//
compound: Cc1cc(OCc2ncccn2)cc(=O)n1Cc1cccc(N2CC(C)(C)C2)c1 [Compound I-271]
inhibition at 10 µM: < 25%
//
compound: Cc1cc(OCc2cncnc2)cc(=O)n1C(C)c1ccc(C#CC2CC2)c(F)c1 (stereo not drawn) [Compound I-364]
inhibition at 10 µM: > 75%

Prompt: Name the reported inhibition at 10 µM value associated with the compound Cc1cc(OCC2COc3ncccc3O2)cc(=O)n1C(C)c1ccc(C#CC2CC2)cc1 (stereo not drawn) [Compound I-106]
Response: > 75%

Prompt: Name the reported inhibition at 10 µM value associated with the compound CC(c1ccc(C#CC2CC2)cc1)n1c(Cl)cc(OCc2ncccn2)cc1=O (stereo not drawn) [Compound I-321]
Response: > 75%

Prompt: Name the reported inhibition at 10 µM value associated with the compound COc1ccc([C@@H](C)n2c(C)cc(OCC3COCCO3)cc2=O)cc1 (stereo partly drawn) [Compound I-218]
Response: 25 to 50%

Prompt: Name the reported inhibition at 10 µM value associated with the compound Cc1cc(OCc2ncccn2)cc(=O)n1[C@H](C)c1ccc(C#Cc2ccccc2)cc1 [Compound I-329]
Response: < 25%

Prompt: Name the reported inhibition at 10 µM value associated with the compound Cc1cc(OC[C@H]2COCCO2)cc(=O)n1Cc1ccc(F)c(C#CC2CC2)c1 [Compound I-28]
Response: < 25%

Prompt: Name the reported inhibition at 10 µM value associated with the compound Cc1cc(OCC2COCCO2)cc(=O)n1Cc1cccc(N2CC(C)(C)C2)c1 (stereo not drawn) [Compound I-146]
Response: < 25%

----------
tested system: GPR84 (Homo sapiens (Human))
protocol notes: Gai biosensor BRET assay (GPR84-mediated activation of Gai, antagonist mode against agonist ZQ-16)
Type: cell-based
measurement context: compound tested at 10 μM (concentration code D)
quantity: inhibition at 10 µM

Prompt: Please state recorded inhibition at 10 µM (tested on GPR84 (Homo sapiens (Human))) of Cc1cc(OCc2ncccn2)cc(=O)n1Cc1cccc(OCC(F)(F)F)c1
Response: < 25%

Prompt: Please state recorded inhibition at 10 µM (tested on GPR84 (Homo sapiens (Human))) of COc1ccc2nc(-c3ccc(C#CC4CC4)cc3)cn2c1
Response: < 25%

Prompt: Please state recorded inhibition at 10 µM (tested on GPR84 (Homo sapiens (Human))) of Cc1cc(OCC2COCCO2)cc(=O)n1CCc1ccc(C#CC2CC2)cc1 (stereo not drawn)
Response: 50 to 75%

Prompt: Please state recorded inhibition at 10 µM (tested on GPR84 (Homo sapiens (Human))) of Cc1cc(OCc2ccccn2)ccc1-c1cc(OCC2COCCO2)n(C)c(=O)c1 (stereo not drawn)
Response: < 25%

Prompt: Please state recorded inhibition at 10 µM (tested on GPR84 (Homo sapiens (Human))) of Cc1cc(C#CC2CC2)cnc1C(C)n1ccc(OC[C@@H]2COCCO2)cc1=O (stereo partly drawn)
Response: < 25%

Prompt: Please state recorded inhibition at 10 µM (tested on GPR84 (Homo sapiens (Human))) of Cc1cc(OCc2ncccn2)cc(=O)n1[C@H](C)c1ccc(-c2ccccc2)cc1
Response: < 25%
